Tested system: Poly [ADP-ribose] polymerase 1 (Homo sapiens)
Sequence (P09874 whole entry): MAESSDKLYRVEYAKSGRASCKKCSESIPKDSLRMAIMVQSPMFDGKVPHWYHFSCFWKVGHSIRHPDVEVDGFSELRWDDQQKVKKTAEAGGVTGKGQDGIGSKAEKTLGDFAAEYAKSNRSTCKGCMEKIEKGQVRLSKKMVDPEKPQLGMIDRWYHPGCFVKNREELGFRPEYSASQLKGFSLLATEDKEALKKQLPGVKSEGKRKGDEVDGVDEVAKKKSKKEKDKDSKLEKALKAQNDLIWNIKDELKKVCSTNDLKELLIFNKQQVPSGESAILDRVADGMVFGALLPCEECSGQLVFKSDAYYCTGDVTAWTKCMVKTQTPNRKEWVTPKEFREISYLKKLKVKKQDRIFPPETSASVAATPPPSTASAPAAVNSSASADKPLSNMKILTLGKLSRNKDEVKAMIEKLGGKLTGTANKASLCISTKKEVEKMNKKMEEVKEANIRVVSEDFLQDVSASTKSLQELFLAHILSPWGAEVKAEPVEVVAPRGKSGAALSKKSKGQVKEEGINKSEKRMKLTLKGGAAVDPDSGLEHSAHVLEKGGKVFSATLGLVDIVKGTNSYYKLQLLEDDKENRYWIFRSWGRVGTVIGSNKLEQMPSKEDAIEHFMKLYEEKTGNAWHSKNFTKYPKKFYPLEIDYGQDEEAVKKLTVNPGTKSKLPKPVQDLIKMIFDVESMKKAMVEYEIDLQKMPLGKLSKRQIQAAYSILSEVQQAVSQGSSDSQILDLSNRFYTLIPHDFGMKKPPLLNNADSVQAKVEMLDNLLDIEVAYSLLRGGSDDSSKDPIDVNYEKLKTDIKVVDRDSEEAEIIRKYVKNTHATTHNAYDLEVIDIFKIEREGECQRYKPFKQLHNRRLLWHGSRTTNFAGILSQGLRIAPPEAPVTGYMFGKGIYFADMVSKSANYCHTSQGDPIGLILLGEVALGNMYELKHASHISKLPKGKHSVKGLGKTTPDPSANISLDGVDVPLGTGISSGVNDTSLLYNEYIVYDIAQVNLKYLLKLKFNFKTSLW
Method: Inhibition of PARP1 (unknown origin)
pIC50: −log10 of the molar value.
Assign criterion met whenever pIC50 does not fall below 7; assign criterion not met whenever it does.

Prompt: Assess whether reported pIC50 for O=C(Cn1c(=S)n(-c2ccccc2)c(=O)c2ccccc21)Nc1ccc2c(c1)C(=O)c1ccccc1C2 sits at 7 or higher.
Completion: criterion not met

Prompt: Assess whether reported pIC50 for O=C(NCCc1ccc(F)cc1)c1cc(Cc2n[nH]c(=O)c3ccccc23)ccc1F sits at 7 or higher.
Completion: criterion met

Prompt: Assess whether reported pIC50 for O=C1N[C@H](C2CC2)[C@@H](C(=O)N2CCC(N3CCCCC3)CC2)c2ccc(F)cc21 sits at 7 or higher.
Completion: criterion not met

Prompt: Assess whether reported pIC50 for CCOC(=O)c1ccc(NC(=O)CS/C(=C\C(=O)c2sc(Nc3ccccn3)nc2C)c2ccccc2F)cc1 sits at 7 or higher.
Completion: criterion not met
